protocol text: NCI Yeast Anticancer Drug Screen. Data for the bub3 strain (AID 167)
measurement setup: S. cerevisiae bub3 mutant strain, at 50.0 µM (retest, dose inferred, filed as 5.0), hits give high values
Compounds without any hit were thinned out: in the full panel of roughly 79,000, 15% have a hit. Activity calls are given as the source filed them. Cut-off read from the data, not from the text of the source: active = growth inhibition above about 70%; inactive = the rest.
Collected growth inhibition values appear next to each entry.
quantity name: growth inhibition

compound=N#CC(C#N)=Cc1ccc(Cl)o1 quantity_name="growth inhibition" val="35% (inactive)"
compound=S=P(Nc1ccc(Cl)cc1)(Nc1ccc(Cl)cc1)c1ccccc1 quantity_name="growth inhibition" val="86% (active)"
compound=O=C(Nc1n[c]([Hg][Cl])[c]([Hg][Cl])s1)OCc1ccccc1 quantity_name="growth inhibition" val="99% (active)"
compound=O=C(CBr)Nc1ccc(Cl)cc1 quantity_name="growth inhibition" val="99% (active)"
compound="CCC[CH2][Sn]1([CH2]CCC)[O]CC(COc2c(Cl)cc(Cl)cc2Cl)[O]1 (stereo not given)" quantity_name="growth inhibition" val="89% (active)"

---

Each entry below carries its reported growth inhibition.
protocol text: NCI Yeast Anticancer Drug Screen. Data for the mlh1 rad18 strain (AID 175)
measurement setup: S. cerevisiae mlh1 rad18 strain growth inhibition; at 50.0 µM; hits give high values
About 79,000 compounds went through this panel and 15% of them were active in at least one assay; those are over-represented in the sample as a whole.
quantity name: growth inhibition (%)

compound=COc1cc(/C=C/c2ccc(OC)c(O)c2)cc(OC)c1 measurement_unit=% val=98.9
compound=CCOP(=O)(OCC)c1cc2cc(O)ccc2oc1=O measurement_unit=% val=-50.7
compound=CN(C)c1ccc(C(=O)CCCN2CCC3(CC2)C(=O)NCN3c2ccccc2)cc1 measurement_unit=% val=-11.5
compound=O=C(O)C(F)(F)C(F)(F)C(=O)O measurement_unit=% val=5.25
compound="COc1ccc(CC2C3=C(CCCC3)CCN2C)cc1 (configuration not stated)" measurement_unit=% val=-25.8
compound=N#Cc1ccccc1Cl measurement_unit=% val=40
compound="CC(C)c1oc(=O)cc2c1C(O)C1OC(=O)C3(C)C(O)C4OC4C2(C)C13 (configuration not stated)" measurement_unit=% val=18.4
compound=CC(=O)c1ccccc1O.CO.CO.[Cl][Ta][Cl] measurement_unit=% val=-10.2
compound=NC(=NC(c1ccccc1)c1ccccc1)N[N+](=O)[O-] measurement_unit=% val=-17.9
compound=OCC12COCN1COC2 measurement_unit=% val=-31.9
compound=CN1C2CCCC1CC(=O)C2 measurement_unit=% val=-10.8
compound=CC(=O)[O-].O=C([CH-]C(=O)c1ccccc1)c1ccccc1.O=C([CH-]C(=O)c1ccccc1)c1ccccc1.[Dy+3] measurement_unit=% val=91.3
compound="CC(C)N1COC2Cc3ccccc3CC21 (configuration not stated)" measurement_unit=% val=-16.9
compound=CC(=O)[O][Sn]([c]1ccccc1)([c]1ccccc1)[c]1ccccc1 measurement_unit=% val=91.4
compound="O=P1(N2CCOCC2)OC(c2ccccc2)=CCN1c1ccccc1 (configuration not stated)" measurement_unit=% val=-3.45
compound=Cc1ccc(OP(=O)(Oc2ccc(C)cc2)Oc2ccc(C)cc2)cc1.Cc1ccc(OP(=O)(Oc2ccc(C)cc2)Oc2ccc(C)cc2)cc1.Cc1ccc(OP(=O)(Oc2ccc(C)cc2)Oc2ccc(C)cc2)cc1.Cc1ccc(OP(=O)(Oc2ccc(C)cc2)Oc2cccc(C)c2)cc1.[Cd+2].[O-][Cl+3]([O-])([O-])O measurement_unit=% val=39.2
compound=[CH3][Sb]1([Cl])[CH2]CC[CH2]1 measurement_unit=% val=27
compound=S=c1nccc[nH]1 measurement_unit=% val=17.4
compound=Cc1ccc(NC(=O)C(=O)C2C(=O)NC(=O)NC2=O)cc1C measurement_unit=% val=-23.2
compound=CO/C=C/c1ccc2c(c1)OCO2 measurement_unit=% val=-10.8
compound=CCOP(=O)(CCC[N+](=O)[O-])OCC measurement_unit=% val=-7.65
compound=CC(C)OP(=O)(OC(C)C)C(C(F)(F)F)C(F)(F)F measurement_unit=% val=-23.1
compound=Nc1nc(N)c2cnnn2n1 measurement_unit=% val=20.8
compound="CCN1CN(c2ccccc2)C2(CCN(CC(CC3OCCO3)c3ccc(F)cc3)CC2)C1=O (configuration not stated)" measurement_unit=% val=44.6
compound=O=CC=O measurement_unit=% val=28.4
compound=Cc1cc(C)[n+](CCc2ccccc2)c(C)c1 measurement_unit=% val=4.25
compound=O=C(Oc1cc(Cl)c(S(=O)(=O)F)cc1Cl)c1ccccc1Cl measurement_unit=% val=96.8
compound=COC(=O)c1nc(-c2ccc3c(n2)C(=O)C(N)=C(OC)C3=O)c(N)c(-c2ccc(OC)c(OC)c2O)c1C measurement_unit=% val=47.5
compound="CC/C=C/c1cc2c(cc1O)CCC1C2CC[C@@]2(C)C1CC[C@@H]2O (some centres not stated)" measurement_unit=% val=90.5
compound="NC(CSC(c1ccccc1)c1ccccc1)C(=O)O (configuration not stated)" measurement_unit=% val=3.5
compound=Fc1ccc(C2(N3CCC4(CC3)OCCO4)CCCCC2)cc1 measurement_unit=% val=5.6
compound=CN1C(=O)C2(C)SSC1(C)C(=O)N2C measurement_unit=% val=98.6
compound=Cn1c(O)c(C=N)c(=O)n(C)c1=O measurement_unit=% val=4.7
compound="O=C(OC1CN2CCC1CC2)N(c1ccccc1)c1ccccc1 (configuration not stated)" measurement_unit=% val=13.3
compound="COC1OCCC[CH]1[Hg][Cl] (configuration not stated)" measurement_unit=% val=99.2
compound=CN(C)c1ccc2c(c1)Cc1ccccc1-2 measurement_unit=% val=-25.8
compound="CC(Cl)CN(CC(C)Cl)c1ccc(-c2ccccc2)cc1 (configuration not stated)" measurement_unit=% val=-30.9
compound=COC(=O)c1cccc2cc3cccc[n+]3cc12 measurement_unit=% val=0.75
compound=O=C(Oc1ccc(S(=O)(=O)F)cc1F)c1ccccc1Cl measurement_unit=% val=98.7
compound=CCNC(=O)CCl measurement_unit=% val=10.4
compound=CCOP(=O)(OCC)Oc1ccc([N+](=O)[O-])c(CC)c1 measurement_unit=% val=-8.25
compound=O=P(CCl)(Oc1ccc(Cl)cc1)Oc1ccc(Cl)cc1 measurement_unit=% val=-10.2

---

Quick reference for growth inhibition among some compounds
protocol text: NCI Yeast Anticancer Drug Screen. Data for the cln2 rad14 strain (AID 165);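 note: 0% = growth equal to vehicle treated cultures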
measurement setup: S. cerevisiae cln2 rad14 strain, at 5.0 µM (retest, dose inferred, filed as 0.5), hits give high values
The panel holds about 79,000 compounds, 15% with a hit somewhere; the sample as a whole holds those more often.
quantity name: growth inhibition (%)

compound=O=C([O-])C(F)(F)C(F)(F)F.[C-]#[O+].[C-]#[O+].[C-]#[O+].[C-]#[O+].[C-]#[O+].[Re] quantity_name="growth inhibition" measurement_unit=% val=12
compound=O=[n+]1c2ccccc2n([O-])c2ccccc21 quantity_name="growth inhibition" measurement_unit=% val=18
compound=CC(=O)c1cc2c(cc1O)C(C)(C)CCC2(C)C quantity_name="growth inhibition" measurement_unit=% val=0
compound="COC1CCCC2OC3(OC)C(OC)CCCC3OC12OC (centres undefined)" quantity_name="growth inhibition" measurement_unit=% val=5

---

protocol text: NCI Yeast Anticancer Drug Screen. Data for the sgs1 mgt1 strain (AID 161);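 note: 0% = growth of cultures given vehicle only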
measurement setup: S. cerevisiae sgs1 mgt1 strain, at 50.0 µM
The panel holds about 79,000 compounds, 15% with a hit somewhere; the sample as a whole holds those more often. The source made the active and inactive calls. Cut-off read from the data, not from the text of the source: active = growth inhibition above about 70%; inactive = the rest.
Outcome codes: active, inactive

molecule=Cc1ccc2c(c1)N(CCN(CCCl)CCCl)c1c(ccc3ccccc13)S2 classification=active
molecule=N#CC1(c2ccccc2)CCCC1 classification=inactive
molecule="O=C1C(CCl)(CCl)CCC12CNC(Cl)(Cl)C2 (stereo unspecified)" classification=inactive
molecule="NC(Cc1ccccc1)c1ccccc1 (stereo unspecified) (tested in a mixture with another compound)" classification=inactive
molecule=CC(C)(C)c1cc(C#N)cc(Br)c1OP(=O)(Oc1c(Br)cc(C#N)cc1C(C)(C)C)c1ccccc1 classification=inactive
molecule="COc1ccc(C(C)N)cc1 (stereo unspecified)" classification=inactive

---

protocol text: NCI Yeast Anticancer Drug Screen. Data for the sgs1 mgt1 strain (AID 161);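 note: 0% = growth of cultures given vehicle only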
measurement setup: S. cerevisiae sgs1 mgt1 strain, at 50.0 µM
This is part of a sample that, as a whole, favours compounds with a hit. Of some 79,000 tested, about 15% had one in any assay. The source made the active and inactive calls. Cut-off read from the data, not from the text of the source: active = growth inhibition above about 70%; inactive = the rest.
Classes used: active, inactive

compound=CCCN(CCC)C(=O)CCl classification=inactive
compound=O=C(Oc1ccc(S(=O)(=O)F)cc1Cl)c1ccccc1Cl classification=active
compound=CSC(SC)P(=O)(Oc1ccccc1)Oc1ccccc1 classification=inactive
compound="CSCCC([NH-])C(=O)O.CSCCC([NH-])C(=O)O.[Cu+2] (configuration not stated)" classification=inactive
compound=S=C(Nc1ccccc1)Nc1ccc(N(CCCl)CCCl)cc1 classification=inactive
compound="COc1ccc([As]=[As]c2ccc(OC)c(I)c2)cc1I (configuration not stated)" classification=active
compound="[Cl][Ni][Cl].[NH-]C1CCCCC1[NH-].[NH-]C1CCCCC1[NH-] (configuration not stated)" classification=inactive
compound=CC(=O)Nc1nc(CCl)cs1 classification=inactive
compound=O=P1(C(Cl)Cl)OCCCO1 classification=inactive
compound="CC(Cl)C(=O)OC(C)C(=O)O (configuration not stated)" classification=inactive
compound=CCCCCCCCCl classification=inactive
compound="CC(=O)SCCC(NC(=S)Nc1ccccc1)P(=O)(Oc1ccccc1)Oc1ccccc1 (configuration not stated)" classification=inactive
compound="CCOP(=O)(OCC)C(N)Cc1ccc(OC)c(OC)c1 (configuration not stated)" classification=inactive
compound=O=[N+]([O-])/C=C/c1ccc(Cl)cc1 classification=active
compound=ClCCCCCCCCCCCl classification=inactive
compound=NCCCN1CCN(CCCN2CC2)CC1 classification=active
compound=CNC(=O)c1cc(N(CCCl)CCCl)c([N+](=O)[O-])cc1[N+](=O)[O-] classification=inactive
compound="C[N+](C)(C)CC1CCCC1=O (configuration not stated)" classification=inactive
compound=COc1cc([N+](=O)[O-])c2ncccc2c1[N+](=O)[O-] classification=active
compound=CN1CCN(c2ccc3nc(-c4ccc5nc(CCCc6ccc(N(CCCl)CCCl)cc6)[nH]c5c4)[nH]c3c2)CC1 classification=active
compound=CC1=C(C)C(=O)C(C)=C(C)C1=O classification=inactive
compound=CO[C@H]1C[C@H](O[C@H]2CC[C@]3(C=O)[C@H]4CC[C@]5(C)[C@@H](C6=CC(=O)OC6)CC[C@]5(O)[C@@H]4CC[C@]3(O)C2)O[C@H](C)[C@H]1O[C@@H]1O[C@H](CO)[C@@H](O)[C@H](O)[C@H]1O classification=inactive
compound=CCC1(CC)C(=O)C=CNC1=O classification=inactive
compound=Cc1ccc(NC(=O)C(=O)C2C(=O)NC(=O)NC2=O)cc1C classification=inactive
compound="C[C@]12CC[C@H](OC3OC(CO)C(O)C(O)C3O)C[C@H]1CC[C@@H]1[C@@H]2CC[C@]2(C)[C@@H](C3=CCOC3=O)CC[C@]12O (some centres not stated)" classification=inactive
compound=CN(C)CCc1ccccc1 classification=inactive
compound=CC[N+]1(CC)CC[N+](CC)(CC)CC1 classification=inactive
compound=Cc1cc(CCN)c(C)c2c1sc1ccccc12 classification=active
compound=[Cl][Pt][Cl].[NH-]NC(=O)c1ccncc1 classification=inactive
compound=O.O=C(O)C(=O)O.[NH2-].[Zn] classification=inactive
compound=CN1CN(c2ccccc2)C2(CCN(CCc3csc4ccccc34)CC2)C1=O classification=inactive
compound=O=CNc1ccc(Cl)cc1C(=O)c1ccccc1 classification=inactive
compound="CCOC(=O)C1(C#N)C(C#N)(C#N)C12CCCCC2 (configuration not stated) (tested in a mixture with another compound)" classification=inactive
compound="CCCCSc1ccc(C(SCCN(CC)CC)c2ccccc2)cc1 (configuration not stated)" classification=active
compound="CCOc1ccc(P2(=S)SP(=S)(c3ccc(OCC)cc3)S2)cc1 (configuration not stated)" classification=inactive
compound=CC(=O)Oc1ccc([As](=O)(O)O)cc1 classification=inactive
compound=O=P(Cc1ccccc1)(Oc1ccccc1)Oc1ccccc1 classification=active

Provenance of the data: PubChem BioAssay (NCI)
